test system: Plasmodium falciparum; test: Antiplasmodial activity against Plasmodium falciparum 3D7; format: functional, organism-based
reported-metric: pEC50
Keep in mind that pEC50 stands for -log10 of concentration in molar terms.

*Q* Look at this molecule and give its reported pEC50. `Cc1nnc(-c2ccc3ccn(CC(=O)Nc4ccc(F)cc4F)c3c2)o1`
*A* 7.80

---

assay: Metabolic stability in rat hepatocyte […] assessed as intrinsic clearance measured per 10^6 cells; format: ADME, cell-based; settings: hepatocytes
Field: intrinsic clearance (CLint). Provide a value for each of the compounds that follow.
API: value field is a number in uL/min/10^6 cells; no unit string.

*Q* Look at this compound and give its reported intrinsic clearance (CLint). `COc1cc(NC(=O)Cn2ccc3ccc(-c4cnn(C)c4)cc32)cc(OC)c1OC`
*A* 4.6

*Q* Look at this compound and give its reported intrinsic clearance (CLint). `COc1cc(NC(=O)Cn2cc(Cl)c3cc(F)c(-c4cn(C)nc4C)cc32)cc(OC)c1OC`
*A* 5.7

*Q* Look at this compound and give its reported intrinsic clearance (CLint). `Cn1cc(-c2ccc3ccn(CC(=O)Nc4ccccc4Cl)c3c2)c(C(F)(F)F)n1`
*A* 92

*Q* Look at this compound and give its reported intrinsic clearance (CLint). `COc1cc(NC(=O)Cn2ccc3ccc(-c4cn(C)nc4C)cc32)cc(OC)c1OC`
*A* 11

---

experiment: Tmax in CD-1 mouse at 20 mg/kg, po; assay type: ADME, organism-based; conditions: in vivo
reported-metric: Tmax (h)
API: value field is a number in h; no unit string.

*Q* Look at this compound and give its reported Tmax. `COc1cc(NC(=O)Cn2cc(Cl)c3cc(F)c(-c4cnn(C)c4)cc32)cc(OC)c1OC`
*A* 5.33

---

assay: Cmax in CD-1 mouse at 20 mg/kg, po; type: ADME, organism-based; details: in vivo
reported-metric: Cmax
Answer format: number, then unit.

*Q* Look at this compound and give its reported Cmax. `COc1cc(NC(=O)Cn2cc(Cl)c3cc(F)c(-c4cnn(C)c4)cc32)cc(OC)c1OC`
*A* 700 ng/mL

---

test: Metabolic stability in rat hepatocyte […] assessed as intrinsic clearance measured per 10^6 cells; assay type: ADME, cell-based; conditions: hepatocytes
reported-metric: intrinsic clearance (CLint)

*Q* Look at this compound and give its reported intrinsic clearance (CLint). `Cc1nnc(-c2ccc3ccn(CC(=O)Nc4ccccc4Cl)c3c2)o1`
*A* > 92 uL/min/10^6 cells

*Q* Look at this compound and give its reported intrinsic clearance (CLint). `Cc1nnc(-c2ccc3ccn(CC(=O)Nc4cccnc4Cl)c3c2)o1`
*A* 27 uL/min/10^6 cells

*Q* Look at this compound and give its reported intrinsic clearance (CLint). `Cn1cc(-c2ccc3ccn(CC(=O)Nc4ccccc4Cl)c3n2)cn1`
*A* 92 uL/min/10^6 cells

*Q* Look at this compound and give its reported intrinsic clearance (CLint). `COc1cc(NC(=O)Cn2cc(Cl)c3ccc(-c4cnn(C)c4)cc32)cc(OC)c1OC`
*A* < 1 uL/min/10^6 cells

*Q* Look at this compound and give its reported intrinsic clearance (CLint). `Cn1cc(-c2ccc3c(C#N)cn(CC(=O)Nc4ccccc4Cl)c3c2)cn1`
*A* 59 uL/min/10^6 cells

*Q* Look at this compound and give its reported intrinsic clearance (CLint). `COc1cc(NC(=O)Cn2ccc3cc(F)c(-c4cnn(C)c4)cc32)cc(OC)c1OC`
*A* 1.9 uL/min/10^6 cells

*Q* Look at this compound and give its reported intrinsic clearance (CLint). `COc1cc(NC(=O)Cn2cc(Cl)c3cc(F)c(-c4cnn(C)c4)cc32)cc(OC)c1OC`
*A* 2.6 uL/min/10^6 cells

*Q* Look at this compound and give its reported intrinsic clearance (CLint). `Cn1cc(-c2ccc3c(Cl)cn(CC(=O)Nc4ccccc4Cl)c3c2)cn1`
*A* 29 uL/min/10^6 cells

*Q* Look at this compound and give its reported intrinsic clearance (CLint). `COc1cc(NC(=O)Cn2ccc3ccc(-c4nnc(C)o4)cc32)cc(OC)c1OC`
*A* 8.9 uL/min/10^6 cells

*Q* Look at this compound and give its reported intrinsic clearance (CLint). `Cn1cc(-c2ccc3ccn(CC(=O)Nc4ccccc4Cl)c3c2)cn1`
*A* 91 uL/min/10^6 cells
